- Tested on: Brain
- Run description: Antioxidant activity in rat brain homogenate assessed as inhibition of lipid peroxidation by measuring MDA concentration at 1 uM by TBARS assay relative to control
- Format: functional, tissue-based
- Design: scale not given: the % may be the effect or the level left
# Activity listing for each entry below
Lab book: enter the figure in %, no units written.

Compound	Observation type	Recorded result
Cc1c(C)c2c(c(C)c1O)CCC(C)(C(=O)O)O2 (centres undefined)	Activity	3.39
COC(=O)Cn1c(=O)oc2c(C(=O)/C=C/c3ccc(O)c(O)c3)cccc21	Activity	35.8
CC(C)=CCCn1c(=O)oc2c(C(=O)/C=C/c3ccc(O)c(O)c3)cccc21	Activity	34.2

Give recorded Activity. "CC(C)=CCn1c(=O)oc2c(C(=O)/C=C/c3ccc(O)c(O)c3)cccc21"
35
